Target: GLP-1 receptor (Homo sapiens, UniProt P43220)
Construct: host or cells: HEK293
Sequence (P43220 24-463): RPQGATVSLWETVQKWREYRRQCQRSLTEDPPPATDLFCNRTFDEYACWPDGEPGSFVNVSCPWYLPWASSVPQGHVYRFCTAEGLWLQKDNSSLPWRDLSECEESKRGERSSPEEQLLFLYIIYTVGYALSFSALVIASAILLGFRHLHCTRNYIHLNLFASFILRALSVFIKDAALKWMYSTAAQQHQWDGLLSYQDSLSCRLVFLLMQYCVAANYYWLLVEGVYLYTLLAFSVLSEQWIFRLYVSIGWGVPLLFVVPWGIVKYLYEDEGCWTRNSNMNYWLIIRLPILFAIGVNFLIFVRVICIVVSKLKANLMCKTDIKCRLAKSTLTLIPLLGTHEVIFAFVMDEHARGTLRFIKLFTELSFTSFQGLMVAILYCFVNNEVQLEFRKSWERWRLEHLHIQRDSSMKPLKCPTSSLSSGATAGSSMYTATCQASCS
Assay: cAMP detection assay of agonistic effect in HEK293 cells with high expression of hGLP-1R
Format: cell-based
Conditions: agonistic effect, cAMP, HEK293 cells with high expression of hGLP-1R; read-out: EC50
Where a name gives a salt, the structure may show the parent alone.
Response field label: string, one of Yes (EC50 strictly below 200 pM) or No.

Compound: O=C(O)c1ccc2nc(CC3CC=C(c4ncc(F)c(OCc5ccc(Cl)c6ccoc56)n4)CC3)n(C[C@@H]3CCO3)c2c1 (stereo partly shown) [Compound 3]
Class label: No

Compound: O=C(O)c1ccc2nc(CC3CC=C(c4ncc(F)c(OCc5ccc(Cl)c6cc(F)oc56)n4)CC3)n(C[C@@H]3CCO3)c2c1 (stereo partly shown) [Compound 31]
Class label: Yes

Compound: O=C(O)c1ccc2nc(CC3CC=C(c4cccc(OCc5ccc(Cl)c6cc(F)oc56)n4)CC3)n(C[C@@H]3CCO3)c2c1 (stereo partly shown) [Compound 2]
Class label: No

Compound: O=C(O)c1cc(F)c2nc(C[C@H]3CC[C@H](c4cccc(OCc5ccc(Cl)c6cc(F)oc56)n4)CC3)n(C[C@@H]3CCO3)c2c1 [Compound 39]
Class label: Yes

Compound: CCn1cncc1Cn1c(CC2CC=C(c3cccc(OCc4ccc(Cl)c5cc(F)oc45)n3)CC2)nc2ccc(C(=O)O)cc21 (stereo not shown) [Compound 29, hydrochloride]
Class label: No

Compound: O=C(O)c1ccc2nc(C[C@H]3CC=C(c4cccc(OCc5ccc(Cl)c6cc(F)oc56)n4)CC3)n(C[C@@H]3CCO3)c2c1 [Compound 36B]
Class label: No

Compound: O=C(O)c1ccc2nc(CC3CCC(c4cccc(OCc5ccc(Cl)c6cc(F)oc56)n4)CC3)n(C[C@@H]3CCO3)c2c1 (stereo partly shown) [Compound 7]
Class label: No

Compound: N#CCC1(Cn2c(CC3CC=C(c4cccc(OCc5ccc(Cl)c6cc(F)oc56)n4)CC3)nc3ccc(C(=O)O)cc32)CC1 (stereo not shown) [Compound 28]
Class label: Yes
